Test system: UACC-62
Assay: NCI tumour cell line growth inhibition, 48 h
The source made the active and inactive calls. Cut-off read from the data, not from the text of the source: active = GI50 up to about 1.1 µM and inactive = higher.
Parameter: GI50

Measured GI50 for this entry CCC(C)(C)C1CCC2c3c([nH]c4ccccc34)C3C(=O)N(c4ccc(OC)cc4)C(=O)C3C2C1 (stereo not given) on UACC-62: 54.7 µM (inactive)

Measured GI50 for this entry Cc1ccc2nc(-c3ccc(NC(=O)c4ccc(N)cc4)c(S(=O)(=O)O)c3)sc2c1 on UACC-62: > 100 µM (inactive)

Measured GI50 for this entry O=C1NC2C3CC(OCc4ccccc4)(OCc4ccccc4)C2OC3O1 (stereo not given) on UACC-62: > 50 µM (inactive)

Measured GI50 for this entry Nc1n/c(=N\c2ccccc2)ss1 on UACC-62: > 100 µM (inactive)

Continuing:
Measured GI50 for this entry O=C1c2cc([N+](=O)[O-])ccc2-c2ccc3c4ccc5c6c(ccc(c7ccc1c2c73)c64)C(=O)c1cc([N+](=O)[O-])ccc1-5 on UACC-62: > 100 µM (inactive)

Measured GI50 for this entry O=C1c2ccccc2C(=O)c2c(O)c(NCCCNCCO)cc(O)c21 on UACC-62: 18.7 µM (inactive)

Measured GI50 for this entry CC(=O)OCC1OC(n2c(Br)nc3c2c(=O)n(C)c(=O)n3C)C(OC(C)=O)C1OC(C)=O (stereo not given) on UACC-62: 67.6 µM (inactive)

The reported numbers originate from ChEMBL document CHEMBL1201862.
